- Test system: Lewis lung carcinoma lung metastases
- protocol-text: Lung metastases of Lewis lung carcinoma
- Type: in vivo, mouse (male C57BL)
- measurement-conditions: WITH UPHS
measure: Lung Metastases (% Large) (%)
Enter your answer as a number in %; do not include the unit.

{"columns": ["compound", "target-or-test-system", "quantity-unit", "Lung Metastases (% Large)"],
 "data": [
  ["N[C@@H](Cc1ccc(N(CCCl)CCCl)cc1)C(=O)O", "Lewis lung carcinoma lung metastases", "%", 50],
  ["CC1=C(CC(=O)O)c2cc(F)ccc2/C1=C\\c1ccc([S+](C)[O-])cc1 (stereo not shown)", "Lewis lung carcinoma lung metastases", "%", 57],
  ["O=c1[nH]cc(F)c(=O)[nH]1", "Lewis lung carcinoma lung metastases", "%", 40]
]}

Now, please, on to the next compound.
For the compound N.N.[Cl][Pt][Cl] [CDDP, cis-diaminodichloroplatinum(II)] , what Lung Metastases (% Large) is on record?
40

###

Listed here: items and their measured Lung Metastases (% Large).
- Test system: Lewis lung carcinoma lung metastases
- protocol-text: Lung metastases of Lewis lung carcinoma
- Type: in vivo, mouse (male C57BL)
- measurement-conditions: WITH UPHS
Counter-ions that a name gives are not always drawn.
Enter your answer as a number in %; do not include the unit.

Consider the worked cases shown below.
{"columns": ["compound", "target-or-test-system", "Lung Metastases (% Large), %"],
 "data": [
  ["O=P1(N(CCCl)CCCl)NCCCO1 (stereo not shown) [CTX, Cyclophosphamide]", "Lewis lung carcinoma lung metastases", 40],
  ["CN(C)c1ccc(O)c2c1C[C@H]1C[C@H]3[C@H](N(C)C)C(O)=C(C(N)=O)C(=O)[C@@]3(O)C(O)=C1C2=O [Mino, minocycline hydrochloride]", "Lewis lung carcinoma lung metastases", 65],
  ["O=C(O)c1cc(-c2ccc(F)cc2F)ccc1O", "Lewis lung carcinoma lung metastases", 55]
]}

For the compound O=NN(CCCl)C(=O)NCCCl , what Lung Metastases (% Large) is on record?
61

###

- Tested on: Lewis lung carcinoma lung metastases
- protocol-text: Lung metastases of Lewis lung carcinoma
- Type: in vivo, mouse (male C57BL)
- measurement-conditions: WITHOUT UPHS
Counter-ions that a name gives are not always drawn.
measure: Lung Metastases (% Large) (%)
Enter your answer as a number in %; do not include the unit.

Consider the worked cases shown below.
{"columns": ["molecule", "quantity-unit", "Lung Metastases (% Large)"],
 "data": [
  ["O=C(O)c1cc(-c2ccc(F)cc2F)ccc1O", "%", 51],
  ["O=P1(N(CCCl)CCCl)NCCCO1 (centres unmarked) [CTX, Cyclophosphamide]", "%", 40],
  ["O=c1[nH]cc(F)c(=O)[nH]1", "%", 52],
  ["CC1=C(CC(=O)O)c2cc(F)ccc2/C1=C\\c1ccc([S+](C)[O-])cc1 (centres unmarked)", "%", 55],
  ["N[C@@H](Cc1ccc(N(CCCl)CCCl)cc1)C(=O)O", "%", 48]
]}

For the molecule N.N.[Cl][Pt][Cl] [CDDP, cis-diaminodichloroplatinum(II)] , what Lung Metastases (% Large) is on record?
58

For the molecule O=NN(CCCl)C(=O)NCCCl , what Lung Metastases (% Large) is on record?
53

For the molecule CN(C)c1ccc(O)c2c1C[C@H]1C[C@H]3[C@H](N(C)C)C(O)=C(C(N)=O)C(=O)[C@@]3(O)C(O)=C1C2=O [Mino, minocycline hydrochloride] , what Lung Metastases (% Large) is on record?
50

###

Listed here: items and their measured Lewis lung carcinoma growth delay, Mean Days.
- Tested on: Lewis lung carcinoma
- protocol-text: Lewis lung carcinoma growth delay
- Assay type: in vivo, mouse (male C57BL)
- measurement-conditions: WITHOUT UPHS; CDDP or PAM 10 mg/kg day 7; CTX 3 x 150, BCNU 3 x 15 mg/kg days 7, 9, 11; 5-FU 40 mg/kg; NSAID days 4-18
Counter-ions that a name gives are not always drawn.
Enter your answer as a number in days; do not include the unit.

{"columns": ["compound", "target-or-test-system", "quantity-unit", "number"],
 "data": [
  ["N.N.[Cl][Pt][Cl] [CDDP, cis-diaminodichloroplatinum(II)]", "Lewis lung carcinoma", "days", 4.5],
  ["CC1=C(CC(=O)O)c2cc(F)ccc2/C1=C\\c1ccc([S+](C)[O-])cc1 (centres unmarked)", "Lewis lung carcinoma", "days", 1.2]
]}

Identify the measured Lewis lung carcinoma growth delay, Mean Days of O=C(O)c1cc(-c2ccc(F)cc2F)ccc1O for Lewis lung carcinoma.
0.3

Identify the measured Lewis lung carcinoma growth delay, Mean Days of CN(C)c1ccc(O)c2c1C[C@H]1C[C@H]3[C@H](N(C)C)C(O)=C(C(N)=O)C(=O)[C@@]3(O)C(O)=C1C2=O [Mino, minocycline hydrochloride] for Lewis lung carcinoma.
0.8

Identify the measured Lewis lung carcinoma growth delay, Mean Days of O=P1(N(CCCl)CCCl)NCCCO1 (centres unmarked) [CTX, Cyclophosphamide] for Lewis lung carcinoma.
21.5

Identify the measured Lewis lung carcinoma growth delay, Mean Days of N[C@@H](Cc1ccc(N(CCCl)CCCl)cc1)C(=O)O for Lewis lung carcinoma.
2.7

Identify the measured Lewis lung carcinoma growth delay, Mean Days of O=NN(CCCl)C(=O)NCCCl for Lewis lung carcinoma.
3.6

Identify the measured Lewis lung carcinoma growth delay, Mean Days of O=c1[nH]cc(F)c(=O)[nH]1 for Lewis lung carcinoma.
5.4

###

- System: Lewis lung carcinoma
- protocol-text: Lewis lung carcinoma growth delay
- Format: in vivo, mouse (male C57BL)
- measurement-conditions: drug + UPHS vs drug
measure: Increase of growth delay by addition of UPHS

{"columns": ["compound", "result"],
 "data": [
  ["N[C@@H](Cc1ccc(N(CCCl)CCCl)cc1)C(=O)O", "more than two-fold"],
  ["O=P1(N(CCCl)CCCl)NCCCO1 (centres unmarked) [CTX, Cyclophosphamide]", "more than two-fold"]
]}

###

- Test system: FSaIIC fibrosarcoma
- protocol-text: FSaIIC fibrosarcoma tumor growth delay
- Type: in vivo, mouse (male C3H/FeJ mice)
- measurement-conditions: UPHS + drug (air) vs drug alone
Listed here: items and their measured Increase in tumor growth delay by addition of UPHS.
Enter your answer as a number in fold; do not include the unit.

{"columns": ["compound", "quantity-unit", "number"],
 "data": [
  ["N.N.[Cl][Pt][Cl] [CDDP, cis-diaminodichloroplatinum(II)]", "fold", 1.3],
  ["N[C@@H](Cc1ccc(N(CCCl)CCCl)cc1)C(=O)O", "fold", 2.2],
  ["O=P1(N(CCCl)CCCl)NCCCO1 (stereo not shown) [CTX, Cyclophosphamide]", "fold", 2.1]
]}

Now, please, on to the next compound.
For the compound O=NN(CCCl)C(=O)NCCCl , what Increase in tumor growth delay by addition of UPHS is on record?
1.5
